Test system: human Factor XI mRNA
Assay: Dose-dependent inhibition and IC50 in HepG2 cells, electroporation (Example 15)
Assay type: cell-based
Settings: electroporation, 370.37 nM
Protocol: Cells were plated at a density of 20,000 cells per well and transfected using electroporation with 123.46 nM, 370.37 nM, 1,111.11 nM, 3,333.33 nM and 10,000 nM concentrations of antisense oligonucleotide, as specified in Table 52. After a treatment period of approximately 16 hours, RNA was isolated from the cells and Factor XI mRNA levels were measured by quantitative real-time PCR. […] Factor XI mRNA levels were adjusted according to total RNA content, as measured by RIBOGREEN. […]
In the oligonucleotide strings, read from the 5' end, every base follows the letter of its sugar. An asterisk marks phosphorothioate; unmarked linkages are phosphodiester. Other units and linkages are bracketed, terminal groups are in braces. A string of capitals states the bases alone. e = 2'-O-(2-methoxyethyl) (MOE); [5mC] = 5-methylcytosine; d = 2'-deoxy (DNA)
QUANTITY MEASURED: percent inhibition of Factor XI mRNA (%)
Give the value in % but do not write % after it.

Study these solved cases before continuing.
SUBSTANCE | percent inhibition of Factor XI mRNA, %
416856 (antisense GGCATTGGTGCACAGTTTCT; 5-10-5 gapmer, wing sugar chemistry not given here, further chemistry not given here) [compound 416856] | 23
416861 (antisense GCGGACGGCATTGGTGCACA; 5-10-5 gapmer, wing sugar chemistry not given here, further chemistry not given here) [compound 416861] | 15

Would you kindly share the measured percent inhibition of Factor XI mRNA for 445505 (antisense e[5mC]*eG*eG*e[5mC]*eA*eT*dT*dG*dG*dT*dG*d[5mC]*dA*d[5mC]*eA*eG*eT*eT*eT*e[5mC]) [compound 445505] ?
30

Would you kindly share the measured percent inhibition of Factor XI mRNA for 416860 (antisense CGGACGGCATTGGTGCACAG; 5-10-5 gapmer, wing sugar chemistry not given here, further chemistry not given here) [compound 416860] ?
28

Would you kindly share the measured percent inhibition of Factor XI mRNA for 416857 (antisense e[5mC]*eG*eG*e[5mC]*eA*dT*dT*dG*dG*dT*dG*d[5mC]*dA*d[5mC]*dA*eG*eT*eT*eT*e[5mC]) [compound 416857] ?
20

---

Catalogue of percent inhibition of human Factor XI mRNA values
tested on: human Factor XI mRNA; assay: Dose-dependent inhibition in HepB3 cells, electroporation (Example 7); assay type: cell-based; settings: 123.457 nM, approx. 16 h

Study these solved cases before continuing.
SUBSTANCE | READING
416999 (antisense GCACAGTTTCTGGCAGGCCT; 2-13-5 gapmer, wing sugar chemistry not given here, further chemistry not given here) [compound 416999] | 45%
416864 (antisense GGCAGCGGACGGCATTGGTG; 5-10-5 gapmer, wing sugar chemistry not given here, further chemistry not given here) [compound 416864] | 3%
416826 (antisense ATGCCCTTCATGTCTAGGTC; 5-10-5 gapmer, wing sugar chemistry not given here, further chemistry not given here) [compound 416826] | 0%
416925 (antisense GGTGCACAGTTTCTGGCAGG; 3-14-3 chimeric gapmer, wing sugar chemistry not given here, further chemistry not given here) [compound 416925] | 39%

Moving on to another substance below.
Would you kindly share the measured percent inhibition of human Factor XI mRNA for 417002 (antisense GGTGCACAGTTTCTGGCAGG; 2-13-5 gapmer, wing sugar chemistry not given here, further chemistry not given here) [compound 417002] ?
0%

Recorded values, source patent US20120083522A1.
